# target-entity: human mitochondrial CIpP (HsCIpP) (Homo sapiens, UniProt Q16740)
# Construct: made in house; host or cells: E. coli SG1146 (BL21(DE3) ΔclpP::cat)
# Sequence (Q16740 57-277): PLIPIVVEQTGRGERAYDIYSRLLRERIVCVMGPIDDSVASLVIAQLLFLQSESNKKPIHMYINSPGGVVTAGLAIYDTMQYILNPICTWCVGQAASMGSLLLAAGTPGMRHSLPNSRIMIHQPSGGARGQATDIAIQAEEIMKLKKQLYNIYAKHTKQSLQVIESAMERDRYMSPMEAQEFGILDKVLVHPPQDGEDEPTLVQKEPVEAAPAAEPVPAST
# run-description: Screen of ADEP analogs against HsCIpP: relative degradation (RD) index, casein-FITC degradation relative to E. coli CIpAP
# Format: biochemical
# Parameters: key: casein-FITC degradation by HsClpP relative to EcClpAP
# experimental-setup: RD value at 25 μM of the ADEP analog; measure of ability to activate HsCIpP
Where a SMILES comes first, the peptide text is derived from it. Bridges are numbered along the chain shown (N, C = ends). [ ]: non-standard residue; d: D form. The star is where a group is joined. Phe(3,5-F2) = N[C@@H](Cc1cc(F)cc(F)c1)C(=O)O; Pip(4S-Me) = C[C@H]1CCN[C@H](C(=O)O)C1; Pro(4R-Me) = C[C@H]1CN[C@H](C(=O)O)C1; Tiq1c(1S) = O=C(O)[C@H]1NCCc2ccccc21; Heptenoyl(2E) = CCCC/C=C/C(=O)*; aThr = C[C@H](O)[C@H](N)C(=O)O; Pip = O=C(O)[C@@H]1CCCCN1; NMeA = CN[C@@H](C)C(=O)O; Abu = CC[C@H](N)C(=O)O; Boc = CC(C)(C)OC(=O)*
quantity-name: Hs RD25
Give bare numbers.

Completed entries (count: 3):
>  <compound>
CCCC/C=C/C(=O)N[C@@H](Cc1cc(F)cc(F)c1)C(=O)N[C@H]1COC(=O)[C@@H]2C[C@@H](C)CN2C(=O)[C@H](CC)NC(=O)[C@@H]2CCCCN2C(=O)[C@@H]2CCCN2C1=O [ADEP-25] ({Heptenoyl(2E)}-[Phe(3,5-F2)]SP[Pip][Abu][Pro(4R-Me)]; ester 2-C)

>  <target-entity>
human mitochondrial CIpP (HsCIpP) (Homo sapiens, UniProt Q16740)

>  <quantity-name>
Hs RD25

>  <measurement>
0.97

$$$$
>  <compound>
CCCC/C=C/C(=O)N[C@@H](Cc1cc(F)cc(F)c1)C(=O)N[C@H]1COC(=O)[C@@H]2C[C@@H](C)CN2C(=O)[C@H](C)NC(=O)[C@@H]2c3ccccc3CCN2C(=O)[C@@H]2CCCN2C1=O [ADEP-37] ({Heptenoyl(2E)}-[Phe(3,5-F2)]SP[Tiq1c(1S)]A[Pro(4R-Me)]; ester 2-C)

>  <target-entity>
human mitochondrial CIpP (HsCIpP) (Homo sapiens, UniProt Q16740)

>  <quantity-name>
Hs RD25

>  <measurement>
0.92

$$$$
>  <compound>
CCCC/C=C/C(=O)N[C@@H](Cc1cc(F)cc(F)c1)C(=O)N[C@@H]1C(=O)N2CCC[C@H]2C(=O)N2CC[C@H](C)C[C@H]2C(=O)N[C@@H](C)C(=O)N2C[C@H](C)C[C@H]2C(=O)O[C@H]1C [ADEP-38] ({Heptenoyl(2E)}-[Phe(3,5-F2)][aThr]P[Pip(4S-Me)]A[Pro(4R-Me)]; ester 2-C)

>  <target-entity>
human mitochondrial CIpP (HsCIpP) (Homo sapiens, UniProt Q16740)

>  <quantity-name>
Hs RD25

>  <measurement>
0.95

$$$$

Query compound follows.
Reported Hs RD25 for C[C@@H]1C[C@H]2C(=O)OC[C@H](NC(=O)[C@H](Cc3ccccc3)NC(=O)OC(C)(C)C)C(=O)N3CCC[C@H]3C(=O)N(C)[C@@H](C)C(=O)N[C@@H](C)C(=O)N2C1 [ADEP-35] (Boc-FSP[NMeA]A[Pro(4R-Me)]; ester 2-C) : what is it?
0.00
